# Measurement Notes: Pharmacokinetic assay in Wistar rats, oral
# Assay Context: rat, in vivo, 30 mg/kg
Readout Name: AUC(0-t) (ng·h/mL)
The reply should contain only the number, in ng·h/mL.

In the examples that follow, each entry is paired with its recorded AUC(0-t).
{"Compound": "[2H]C([2H])([2H])C([2H])([2H])n1nccc1C(=O)N[C@H](C(=O)Nc1ncc([C@@H](CN2CCC(C(F)(F)F)CC2)N2CC(F)(F)CCC2=O)s1)[C@H]1CC[C@H](C)CC1 [Example 948]", "Unit Abbrev": "ng·h/mL", "AUC(0-t)": 18800}
{"Compound": "[2H]C([2H])([2H])C([2H])([2H])n1nccc1C(=O)N[C@H](C(=O)Nc1ncc([C@@H](CN2CCC3(CC2)CC3(F)F)N2CC(F)(F)CCC2=O)s1)[C@H]1CC[C@H](C)CC1 [Example 958]", "Unit Abbrev": "ng·h/mL", "AUC(0-t)": 13200}
{"Compound": "[2H]C([2H])([2H])C([2H])([2H])n1nccc1C(=O)N[C@H](C(=O)Nc1ncc([C@@H](CN2CCC(CF)CC2)N2CC(F)(F)CCC2=O)s1)[C@H]1CC[C@H](C)CC1 [Example 928]", "Unit Abbrev": "ng·h/mL", "AUC(0-t)": 18900}
{"Compound": "C[C@H]1CC[C@H]([C@H](NC(=O)C2(F)CC2)C(=O)Nc2ncc([C@@H](CN3CCC(C(F)(F)F)CC3)N3CC(F)(F)CNC3=O)s2)CC1 [Example 774]", "Unit Abbrev": "ng·h/mL", "AUC(0-t)": 24400}

The record that follows has no AUC(0-t) shown yet.
Q: Identify AUC(0-t) associated with the compound [2H]C([2H])([2H])C([2H])([2H])n1nccc1C(=O)NC(C(=O)Nc1ncc(C(CN2CCOCC2C)N2CC(F)(F)CCC2=O)s1)C1CCC(C)CC1 (centres unmarked) [Example 818]
Result: 15500

* * *

Consider the following compounds and their measured pIC50 readings.
# Target Desc: human IL-17RA and IL-17A proteins (Homo sapiens)
# Sequence (Q16552 24-155): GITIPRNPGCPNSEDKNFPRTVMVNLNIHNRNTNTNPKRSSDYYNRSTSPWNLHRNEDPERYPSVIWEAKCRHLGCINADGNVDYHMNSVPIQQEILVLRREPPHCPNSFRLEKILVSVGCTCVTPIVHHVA
Lab note — pIC50 values are minus log10 of concentrations in M.

In the examples that follow, each entry is paired with its recorded pIC50.
{"Compound": "CC1CCC([C@H](NC(=O)C2(F)CC2)C(=O)Nc2ncc(C(CN3CCOCC3)N3CC(F)(F)CNC3=O)s2)CC1 (stereo partly shown)", "Target Desc": "human IL-17RA and IL-17A proteins (Homo sapiens)", "pIC50": 8.39}
{"Compound": "C[C@H]1CC[C@H]([C@H](NC(=O)C2(F)CC2)C(=O)Nc2ncc([C@@H](CN3CCC(F)(F)CC3)N3CC(F)(F)CNC3=O)s2)CC1", "Target Desc": "human IL-17RA and IL-17A proteins (Homo sapiens)", "pIC50": 8.22}
{"Compound": "C[C@@H]1CN(C[C@H](c2cnc(NC(=O)[C@@H](NC(=O)C3(F)CC3)[C@H]3CC[C@H](C)CC3)s2)N2CC(F)(F)CNC2=O)CCO1", "Target Desc": "human IL-17RA and IL-17A proteins (Homo sapiens)", "pIC50": 8.22}

The record that follows has no pIC50 shown yet.
Q: Identify pIC50 associated with the compound C[C@@H]1CN(C[C@H](c2cnc(NC(=O)[C@@H](NC(=O)C3(F)CC3)[C@H]3CC[C@H](C)CC3)s2)N2CC(F)(F)CNC2=O)C[C@H](C)O1
Result: 8.22
